Target: BACE1 (Homo sapiens)
Sequence (P56817 46-501, species assumed): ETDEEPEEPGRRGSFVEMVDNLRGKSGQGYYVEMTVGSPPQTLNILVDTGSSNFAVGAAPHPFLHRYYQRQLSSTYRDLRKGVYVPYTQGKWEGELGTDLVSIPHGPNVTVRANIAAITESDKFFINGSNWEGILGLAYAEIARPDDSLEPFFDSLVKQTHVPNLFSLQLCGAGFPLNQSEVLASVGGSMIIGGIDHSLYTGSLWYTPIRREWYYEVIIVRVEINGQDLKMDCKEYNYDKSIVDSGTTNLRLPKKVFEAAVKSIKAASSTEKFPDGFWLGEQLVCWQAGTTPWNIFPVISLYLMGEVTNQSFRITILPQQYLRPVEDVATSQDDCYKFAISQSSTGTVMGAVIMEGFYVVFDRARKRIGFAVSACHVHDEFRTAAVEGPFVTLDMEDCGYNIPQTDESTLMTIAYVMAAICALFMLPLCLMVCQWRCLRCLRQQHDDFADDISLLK
Assay: In Vitro Enzymatic BACE FRET (Fluorescence Resonance Energy Transfer) Assay
Assay type: biochemical
Details: read-out: BACE1 FRET assay
Description: In Vitro Enzymatic BACE FRET (Fluorescence Resonance Energy Transfer) Assay (Enzyme Assay Data in the Example Tables I, II, III & IV) The assay buffer used in this screen is 0.05 M acetate, pH 4.2, 10% DMSO final, 100 uM genapol (which is a nonionic detergent, below its Critical Micelle Concentration). […] The FRET assay is terminated with by addition of Tris buffer, which raises the pH to neutrality, and the fluorescence is determined. […]
pIC50: −log10 of the molar value.
Exercise: for every item that follows, state its recorded pIC50.

Find the recorded pIC50 belonging to CC(=O)c1ccccc1-c1ccc2c(c1)[C@@]1(COC(N)=N1)c1cc(OCC(C)(C)C)ccc1O2 and report it.
6.00 to 7.00

Find the recorded pIC50 belonging to NC1=N[C@@]2(CO1)c1cc(-c3cccnc3)ccc1Oc1cnc(/C=C/C3CC3)cc12 and report it.
> 7.00

Find the recorded pIC50 belonging to CC(C)(C)COc1ccc2c(c1)[C@]1(COC(N)=N1)c1cc(C3=CCOCC3)ccc1O2 and report it.
6.00 to 7.00

Find the recorded pIC50 belonging to CC(C)(C)CCc1cc2c(cn1)Oc1ccc(-c3cncnc3)cc1[C@@]21COC(N)=N1 and report it.
> 7.00

Find the recorded pIC50 belonging to NC1=N[C@]2(CO1)c1cc(C3=CCNCC3)ccc1Oc1ccc(-c3cncnc3)cc12 and report it.
> 7.00

Find the recorded pIC50 belonging to Cc1noc(C)c1-c1ccc2c(c1)[C@@]1(COC(N)=N1)c1cc(OCC(C)(C)C)ccc1O2 and report it.
6.00 to 7.00

Find the recorded pIC50 belonging to Cn1cc(-c2ccc3c(c2)[C@]2(COC(N)=N2)c2cc(-c4cccnc4)ccc2O3)cn1 and report it.
> 7.00

Find the recorded pIC50 belonging to CC(C)(C)COc1ccc2c(c1)[C@]1(COC(N)=N1)c1cc(-c3cccnc3)ncc1O2 and report it.
> 7.00

Find the recorded pIC50 belonging to NC1=N[C@@]2(CO1)c1cc(-c3cccnc3)ccc1Oc1cnc(CCC3CC3)cc12 and report it.
> 7.00

Find the recorded pIC50 belonging to CC1(C)CC(c2cc3c(cc2F)Oc2ccc(-c4cncnc4)cc2[C@@]32COC(N)=N2)=CC(=O)O1 and report it.
> 7.00

Find the recorded pIC50 belonging to CC(C)(C)C#Cc1cnc2c(c1)[C@]1(COC(N)=N1)c1cc(-c3ccc(F)nc3)ccc1O2 and report it.
> 7.00

Find the recorded pIC50 belonging to CC(C)(O)COc1ccc2c(c1C#N)[C@]1(COC(N)=N1)c1cc(-c3cccnc3)ccc1O2 and report it.
> 7.00

Find the recorded pIC50 belonging to CC(C)(C)COc1ccc2c(c1)[C@]1(COC(N)=N1)c1cc(C3CC3)ccc1O2 and report it.
6.00 to 7.00

Find the recorded pIC50 belonging to NC1=N[C@@]2(CO1)c1cc(-c3cccnc3)ccc1Oc1cnc(C3=CCCCC3)cc12 and report it.
> 7.00

Find the recorded pIC50 belonging to CC(C)(C)COc1cc2c(cc1F)[C@]1(COC(N)=N1)c1cc(-c3cncnc3)ccc1O2 and report it.
5.30 to 6.00

Find the recorded pIC50 belonging to CC(C)(C)COc1ccc2c(c1)[C@]1(COC(N)=N1)c1cc(C3CCOCC3)ccc1O2 and report it.
6.00 to 7.00
